- TESTED_SYSTEM: DR4G98: Human HLA-DRA1*01:02/DRB1*04:02 ECD with collagen II peptide CII_1236-1249 (human)
- METHOD_SUMMARY: MSD ECL; antigen coated; protocol of Example 3
QUANTITY_MEASURED: ECL signal
Numeric answer plus unit only.

Below, each entry is followed by its recorded ECL signal result.
>>> result("DR4B5 (antibody, V domains shown, also called apolizumab (1D10) re-engineered as IgG2sigma) VH: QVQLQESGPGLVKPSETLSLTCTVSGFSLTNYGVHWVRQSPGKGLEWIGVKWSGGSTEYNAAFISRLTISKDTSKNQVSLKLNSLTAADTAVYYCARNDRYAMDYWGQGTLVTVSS VL: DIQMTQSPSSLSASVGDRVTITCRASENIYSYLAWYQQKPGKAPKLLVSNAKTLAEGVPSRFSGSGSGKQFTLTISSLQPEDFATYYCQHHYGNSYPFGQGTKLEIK")
"469 ECL"
>>> result("DR4B6 (antibody, V domains shown, also called L243 re-engineered as IgG2sigma) VH: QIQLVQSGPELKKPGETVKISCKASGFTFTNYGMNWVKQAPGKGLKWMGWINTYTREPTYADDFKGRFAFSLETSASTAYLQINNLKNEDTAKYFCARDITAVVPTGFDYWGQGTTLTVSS VL: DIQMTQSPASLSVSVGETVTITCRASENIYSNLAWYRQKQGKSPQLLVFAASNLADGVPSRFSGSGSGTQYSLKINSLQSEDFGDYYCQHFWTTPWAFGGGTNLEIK")
"623000 ECL"
>>> result("DR4B127 (antibody, human IgG2, kappa, V domains shown, also called VH DR4H7 / VL PH9L3) VH: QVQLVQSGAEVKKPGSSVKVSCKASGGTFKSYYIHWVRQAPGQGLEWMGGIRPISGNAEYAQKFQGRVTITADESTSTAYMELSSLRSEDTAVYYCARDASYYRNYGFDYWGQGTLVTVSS VL: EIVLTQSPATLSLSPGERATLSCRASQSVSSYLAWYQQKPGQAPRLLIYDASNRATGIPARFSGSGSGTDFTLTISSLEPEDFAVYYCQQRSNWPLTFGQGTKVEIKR")
"1.26e+06 ECL"

Request: Quick one: ECL signal of DR4B98 (antibody, human IgG2, kappa, V domains shown, also called VH DR4H50 / VL PH9L3) VH: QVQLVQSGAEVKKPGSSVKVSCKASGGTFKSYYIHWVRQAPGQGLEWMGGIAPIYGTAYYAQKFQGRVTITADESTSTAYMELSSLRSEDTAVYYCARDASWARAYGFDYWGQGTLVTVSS VL: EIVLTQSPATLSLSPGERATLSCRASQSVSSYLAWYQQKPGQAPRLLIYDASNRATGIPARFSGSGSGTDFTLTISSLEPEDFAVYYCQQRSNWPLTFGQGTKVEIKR ?
Response: 350000 ECL

Request: Returns the measured ECL signal for the input binder. Input: DR4B4 (antibody, V domains shown, also called Lym-1 re-engineered as IgG2sigma) VH: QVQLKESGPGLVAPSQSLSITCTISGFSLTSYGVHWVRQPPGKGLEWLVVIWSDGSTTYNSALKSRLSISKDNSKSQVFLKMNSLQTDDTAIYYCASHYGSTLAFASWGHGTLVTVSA VL: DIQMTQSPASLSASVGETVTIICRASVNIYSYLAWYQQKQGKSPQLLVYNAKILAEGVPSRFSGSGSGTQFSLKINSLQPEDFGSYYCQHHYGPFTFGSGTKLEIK
Response: 521 ECL
